Measured target: Melanin-concentrating hormone receptor 1 (Homo sapiens)
Method notes: antagonist activity at MCH receptor 1 – cell-based, fluorescence, set 4, counter-screen for GPR7 antagonist project, dose response (AID 588568)
Condition label: MCHR1-expressing cells, fluorescence antagonist assay; run 1
Active and inactive are the calls of the source. No rule for the calls is given here.
Hi there, use one of these labels in your reply, thanks! active, inactive

Illustrative cases are given below, each with its answer.
>  <Molecule>
COc1ccc(Oc2c(Cl)cnn(-c3ccc(OC(C)C)cc3)c2=O)cc1

>  <Category label>
active

$$$$
>  <Molecule>
O=c1c(Oc2ccc(CCl)cc2)c(Cl)cnn1Cc1cccc2ccccc12

>  <Category label>
active

$$$$
>  <Molecule>
COc1ccc(Oc2c(Cl)cnn(-c3cccc(Br)c3)c2=O)cc1

>  <Category label>
active

$$$$
>  <Molecule>
COc1ccc(Oc2c(Cl)cnn(Cc3c(OC)ccc4ccccc34)c2=O)cc1

>  <Category label>
active

$$$$
>  <Molecule>
NCc1ccc(Oc2c(Cl)cnn(Cc3cccc4ccccc34)c2=O)cc1

>  <Category label>
inactive

$$$$

stdin: # lookup: test call for Cc1cccc(Cn2ncc(Cl)c(Oc3ccc(CO)cc3)c2=O)c1
stdout: inactive

stdin: Let us now turn to COc1ccc(Oc2c(C#N)cnn(-c3ccc(Br)cc3)c2=O)cc1
stdout: inactive

stdin: Let us now turn to COc1ccc(Oc2c(Cl)cnn(C(c3ccccc3)c3ccccc3C)c2=O)cc1 (centres undefined)
stdout: inactive

stdin: Let us now turn to COc1ccc(Oc2c(-c3ccsc3)c(-c3ccsc3)nn(Cc3ccccc3C)c2=O)cc1
stdout: inactive

stdin: Let us now turn to Cc1cc(C)cc(Cn2ncc(Cl)c(Oc3ccc(CO)cc3)c2=O)c1
stdout: active

stdin: Let us now turn to COc1cccc(Oc2c(Cl)cnn(-c3cc(C)cc(C)c3)c2=O)c1
stdout: inactive

stdin: Let us now turn to CC(C)c1ccc(-n2ncc(Cl)c(Oc3ccc(CO)cc3)c2=O)cc1
stdout: active

stdin: Let us now turn to CCCCCCCn1ncc(Cl)c(Oc2ccc(OC)cc2)c1=O
stdout: inactive

stdin: Let us now turn to C=Cc1cnn(Cc2cccc3ccccc23)c(=O)c1Oc1ccc(OC)cc1
stdout: active

---

Measured target: Melanin-concentrating hormone receptor 1 (Homo sapiens)
Method notes: antagonist activity at MCH receptor 1 – cell-based, fluorescence, set 4, counter-screen for GPR7 antagonist project, dose response (AID 588568)
Condition label: MCHR1-expressing cells, fluorescence antagonist assay; run 1
The source made the active and inactive calls. How the calls were made is not given here.
Hi there, use one of these labels in your reply, thanks! label 1 for active, label 0 for inactive

Illustrative cases are given below, each with its answer.
>  <Compound>
COc1ccc(Oc2c(Cl)cnn(C(COC(C)=O)c3cccc4ccccc34)c2=O)cc1 (stereo not given)

>  <Category label>
label 0

$$$$
>  <Compound>
COc1ccc(Oc2c(Cl)cnn(Cc3ccc(Cl)cc3)c2=O)cc1

>  <Category label>
label 1

$$$$

stdin: # lookup: test call for COc1ccc(Oc2c(Cl)cnn(CC(=O)c3ccc(C)cc3C)c2=O)cc1
stdout: label 1

stdin: Let us now turn to O=c1c(Oc2ccc(CO)cc2)c(Cl)cnn1Cc1cccc2ccccc12
stdout: label 1

stdin: Let us now turn to O=c1c(Oc2ccc(OC(F)(F)F)cc2)c(Cl)cnn1C1c2ccccc2-c2ccccc21
stdout: label 0

---

Measured target: Melanin-concentrating hormone receptor 1 (Homo sapiens) (UniProt Q99705)
Method notes: antagonist activity at MCH receptor 1 – cell-based, fluorescence, set 4, counter-screen for GPR7 antagonist project, dose response (AID 588568)
Condition label: MCHR1-expressing cells, fluorescence antagonist assay; run 1
The source made the active and inactive calls. The rule behind the calls is not given here.
Quantity: IC50

Reference set, count: 2
>  <Compound>
COc1ccc(Oc2c(Cl)cnn(Cc3ccc(-c4ccccc4)cc3)c2=O)cc1

>  <IC50>
> 20 µM (inactive)

$$$$
>  <Compound>
CCOc1ccc(Cn2ncc(Cl)c(Oc3ccc(OC)cc3)c2=O)cc1C#N

>  <IC50>
9.37 µM

$$$$

stdin: What value of measured IC50 is listed for O=C(C1CCCN1Cc1ccc(Cl)c(Cl)c1)N1CCN(c2ccc([N+](=O)[O-])cc2)CC1 (stereo not given) ?
stdout: 2.13 µM

stdin: Let us now turn to COc1ccc(Oc2c(Cl)cnn(Cc3cccc(C)c3)c2=O)cc1
stdout: 4.7 µM

stdin: Let us now turn to COc1ccc(Oc2c(Cl)c(-c3ccc(C)cc3)nn(Cc3ccccc3C)c2=O)cc1
stdout: 6.43 µM

stdin: Let us now turn to COc1ccc(Oc2c(Cl)cnn(-c3ccc(C4=CCCCC4)cc3)c2=O)cc1
stdout: 5.13 µM

stdin: Let us now turn to COc1ccc(Oc2c(-c3ccc(C)cc3)c(-c3ccc(C)cc3)nn(Cc3ccccc3C)c2=O)cc1
stdout: > 20 µM (inactive)

stdin: Let us now turn to COc1ccc(Oc2c(Cl)c(C3=CCCCC3)nn(Cc3ccccc3C)c2=O)cc1
stdout: 3.57 µM

stdin: Let us now turn to CCc1ccc(Oc2c(Cl)cnn(C3c4ccccc4-c4ccccc43)c2=O)cc1
stdout: > 20 µM (inactive)
